test system: UO-31 renal; test: NCI tumour cell line growth inhibition, 48 h
Recorded TGI, one value per entry.
metric_name: TGI

# compound, metric_name, measurement
rows = [
    ("CCCCCCc1cc2cc(-c3nc4ccccc4[nH]3)c(=Nc3ccccc3C)oc2cc1O", "TGI", "4.49 µM"),
    ("COc1ccc(C2CC(c3cccc(Nc4ccncc4)c3)=NN2c2ccc(Cl)cc2)cc1 (stereo not given)", "TGI", "2.51 µM"),
    ("O=Cc1c2ccccc2n2ccc3c4ccccc4[nH]c3c12", "TGI", "> 10 µM"),
    ("S=C1Cc2c(-c3ccc(Cl)cc3)cc(-c3ccccc3)nc2-c2ccccc2N1", "TGI", "35.8 µM"),
    ("C/C(=C\\c1ccccc1)C(=O)NCc1ccc(C(=O)NCCC(C)C)cc1", "TGI", "> 100 µM"),
]

---

system: T-47D breast; test: NCI tumour cell line growth inhibition, 48 h
TGI reference

# compound, TGI
records = [
    ("COc1cc(-n2cc(-c3ccc(F)cc3)nc2SCc2ccccc2)cc(OC)c1OC", "> 100 µM"),
    ("CCOC(=O)C[C@@H]1C2(C=C[C@@]13CO3)OCC(C)(C)CO2", "> 100 µM"),
    ("COc1cc(C(=O)N2N=C(c3ccc(S(C)(=O)=O)cc3)CC2c2ccco2)cc(OC)c1OC (stereo unspecified)", "> 100 µM"),
    ("CCN(CC)CCCC(C)Nc1ccnc2cc3ccccc3cc12 (stereo unspecified)", "89.7 µM"),
    ("CC/C(=C(/c1ccc(OCCN(C)C)cc1)c1ccc(OC(=O)CCC(=O)c2c(C)[nH]c(/C=C3\\N=C(c4ccc[nH]4)C=C3OC)c2C)cc1)c1ccccc1", "7.79 µM"),
    ("N/C(=C\\C(=O)n1nc(-c2ccccc2)cc1N)c1ccccc1", "26.3 µM"),
    ("O=c1c2ccccc2c(Br)c(Br)c2ccccc12", "32.3 µM"),
    ("CS(=O)(=O)OC1CN2CCC1CC2 (stereo unspecified)", "> 100 µM"),
    ("CC(C)(C)n1c(=O)[nH]n(C2NN=Cc3cccc4cccc2c34)c1=O (stereo unspecified)", "> 100 µM"),
    ("CC(C)Nc1ccc(Nc2ccccc2)cc1", "38.8 µM"),
    ("COc1ccc2c(c1O)C13CCN(C)C(C2)C1CCC1(C3)OCCO1 (stereo unspecified)", "> 100 µM"),
    ("C#CCN(Cc1nc2cc(C(F)(F)F)ccc2nc1-c1ccccc1)c1ccc(OC(F)(F)F)cc1", "> 100 µM"),
    ("CCN1/C(=C/C=C/c2n(-c3ccccc3)c3ccc(-c4nc5ccccc5s4)cc3[n+]2CC)N(c2ccccc2)c2ccc(-c3nc4ccccc4s3)cc21", "> 50 µM"),
    ("O=C1Cc2c([nH]c3c(Cl)cccc23)-c2ccccc2N1", "> 100 µM"),
    ("N#Cc1n[nH]n(C2CCCCC2)c1=O", "> 100 µM"),
    ("N#Cc1ncc(-c2ccc(C(F)(F)F)cc2)c(NCc2cc(C(F)(F)F)cc(C(F)(F)F)c2)n1", "> 100 µM"),
    ("Clc1cc2c(cc1Cl)Oc1cc(Cl)c(Cl)cc1O2", "> 0.625 µM"),
    ("O=C1CC(c2cccc(O)c2)C2(C(=O)NC(=S)NC2=O)C(c2cccc(O)c2)C1 (stereo unspecified)", "> 100 µM"),
    ("COc1ccc(-n2cc(-c3cc(OC)c(OC)c(OC)c3)nc2SCc2ccccc2)cc1", "> 100 µM"),
    ("N#C/C(=N\\Nc1ccc(Cl)cc1)C(=O)Nc1cc(-c2ccccc2)nn1-c1ccccc1", "7.12 µM"),
    ("Cn1c(N)c(C(N)=O)[nH]c1=S", "> 100 µM"),
]
